Biological target: ClpB NBD2 (Thermus thermophilus, UniProt Q9RA63, R621Q)
Sequence (Q9RA63 520-854 R621Q): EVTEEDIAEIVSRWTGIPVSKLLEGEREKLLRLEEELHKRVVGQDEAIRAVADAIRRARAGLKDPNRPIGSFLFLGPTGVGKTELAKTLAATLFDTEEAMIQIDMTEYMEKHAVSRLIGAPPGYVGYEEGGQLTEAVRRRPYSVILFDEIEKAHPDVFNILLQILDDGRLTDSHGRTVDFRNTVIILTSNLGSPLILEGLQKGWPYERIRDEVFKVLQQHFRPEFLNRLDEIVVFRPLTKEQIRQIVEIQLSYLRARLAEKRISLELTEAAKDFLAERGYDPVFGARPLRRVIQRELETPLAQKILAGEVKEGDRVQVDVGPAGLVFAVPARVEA
Assay: stopped-flow FRET, competition and displacement with MANT-dADP, global fit; Kd = koff/kon
Conditions: 50 mM Tris-HCl pH 7.5, 200 mM KCl, 5 mM MgCl2, 2 mM EDTA, 25 °C; ATP-regenerating system (pyruvate kinase, phosphoenolpyruvate); read-out: Nucleotide binding / K d
pKd: −log10 of the molar value.
ENDPOINT: pKd

[[record]]
substance_smiles = "Nc1ncnc2c1ncn2[C@@H]1O[C@H](COP(=O)(O)OP(=O)(O)OP(=O)(O)O)[C@@H](O)[C@H]1O"
data_value = 4.26


* * *

Target: ClpB NBD2 (Thermus thermophilus, UniProt Q9RA63, R806A)
Sequence (Q9RA63 520-854 R806A): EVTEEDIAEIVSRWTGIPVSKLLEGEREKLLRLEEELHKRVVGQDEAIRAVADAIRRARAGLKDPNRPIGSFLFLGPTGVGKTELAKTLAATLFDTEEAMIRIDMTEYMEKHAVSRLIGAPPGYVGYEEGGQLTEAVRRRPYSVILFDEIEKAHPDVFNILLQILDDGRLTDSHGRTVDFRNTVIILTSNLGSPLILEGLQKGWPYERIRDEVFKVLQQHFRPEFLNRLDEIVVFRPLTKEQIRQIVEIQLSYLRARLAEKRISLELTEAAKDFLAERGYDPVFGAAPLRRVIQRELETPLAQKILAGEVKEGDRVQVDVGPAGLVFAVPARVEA
Test: stopped-flow FRET, displacement and competition with MANT-dADP, global fit; Kd = koff/kon
Conditions: 50 mM Tris-HCl pH 7.5, 200 mM KCl, 5 mM MgCl2, 2 mM EDTA, 25 °C; read-out: Nucleotide binding / K d
ENDPOINT: Kd (µM)

[[record]]
compound = "Nc1ncnc2c1ncn2[C@@H]1O[C@H](COP(=O)(O)OP(=O)(O)O)[C@@H](O)[C@H]1O [ADP]"
assay_target = "ClpB NBD2 (Thermus thermophilus, UniProt Q9RA63, R806A)"
data_value = 3.8

